assay: qHTS of pediatric cancer cell lines to identify multiple opportunities for drug repurposing: Primary screen for MG 63 (6-TG R) cells (AID 1347105); note: nearly all actives have a fitted effect of over 50% in size; note: potency is the fitted concentration of half-maximal effect
test.settings: MG 63 (6-TG R) viability, CellTiter-Glo, 48 h; series mostly up to 46 µM
Records with an inconclusive call do not appear. Calls of active or inactive are those of the source. Calls come from the whole dose curve; as a rule, active = well fitted cell-killing curve with a large enough effect; inconclusive = small, poorly fitted or top-dose-only effect; inactive = no such curve, though single readings can be large or run the other way.
value.type: Potency

Example entries and their recorded answers appear below.
{"compound": "CCCCN1CCCC1C(=O)Nc1c(C)cc(C)cc1C (centres undefined)", "Potency": "inactive"}
{"compound": "COc1cc(N)c(Cl)cc1C(=O)NC1CCN(CCCOc2ccc(F)cc2)CC1OC (centres undefined)", "Potency": "inactive"}
{"compound": "CCOc1ccc(Cc2nccc3cc(OCC)c(OCC)cc23)cc1OCC", "Potency": "inactive"}
{"compound": "C=C1C(=C/C=C2\\CCC[C@]3(C)[C@@H]([C@H](C)/C=C/[C@@H](O)C4CC4)CC[C@@H]23)C[C@@H](O)C[C@@H]1O", "Potency": "inactive"}
{"compound": "CC(=O)Oc1ccc(C(c2ccc(OC(C)=O)cc2)c2ccccn2)cc1", "Potency": "211 nM (active)"}
{"compound": "CN1CCC(=C2c3ccccc3Sc3ccccc32)CC1", "Potency": "inactive"}

Potency in this record for `COc1cc(OC)cc(OC)c1` : inactive

Potency in this record for `COc1cccc2c1C(=O)c1c(O)c3c(c(O)c1C2=O)C[C@@](O)(C(C)=O)C[C@@H]3O[C@H]1C[C@H](N)[C@H](O)[C@H](C)O1` : 4220 nM (active)

Potency in this record for `CC(=O)OCC(=O)[C@@]1(OC(C)=O)[C@@H](C)C[C@H]2[C@@H]3C[C@H](F)C4=CC(=O)C=C[C@]4(C)[C@@]3(F)[C@@H](O)C[C@@]21C` : inactive

* * *

Test system: CP238
assay: qHTS profiling for inhibitors of Plasmodium falciparum proliferation (AID 504749); note: nearly all actives have a fitted effect of over 60% in size
test.settings: P. falciparum in erythrocytes, SYBR Green DNA, 72 h; series mostly up to 28.7 µM
Results filed as inconclusive are left out. Calls of active or inactive are those of the source. Calls come from the whole dose curve; as a rule, active = well fitted inhibition curve with a large enough effect; inconclusive = small, poorly fitted or top-dose-only effect; inactive = flat fitted curve, though single readings scatter.
Form entry, call: pick from active, inactive

{"compound": "NCCc1ccn[nH]1", "class.name": "inactive"}
{"compound": "Cc1c(C)n(CCN(C)C)c2ccc(C(=O)OCCN(C)C)cc12", "class.name": "inactive"}
{"compound": "CCN1CCCC1=O", "class.name": "inactive"}
{"compound": "COC1=CC(=O)C[C@@H](C)[C@]12Oc1c(Cl)c(OC)cc(OC)c1C2=O", "class.name": "inactive"}
{"compound": "NC(=NCCCCCCN=C(N)/N=C(\\N)Nc1ccc(Cl)cc1)/N=C(\\N)Nc1ccc(Cl)cc1", "class.name": "active"}

Look up the recorded call for `CCCCCCC[N+](CC)(CC)CCCCc1ccc(Cl)cc1` in this test.
active

Look up the recorded call for CCOc1ccc(NC(=O)CC(C)O)cc1 (stereo not given) in this test.
inactive

Look up the recorded call for `CCOc1ccc2nc3cc(N)ccc3c(N)c2c1` in this test.
active

Look up the recorded call for `CC(=O)OCC(=O)[C@@]1(OC(C)=O)[C@@H](C)C[C@H]2[C@@H]3C[C@H](F)C4=CC(=O)C=C[C@]4(C)[C@@]3(F)[C@@H](O)C[C@@]21C` in this test.
inactive

Look up the recorded call for `COc1ccc(CCN2CCC(Nc3nc4ccccc4n3Cc3ccc(F)cc3)CC2)cc1` in this test.
active

Look up the recorded call for CCN(CC)CCOC(=O)C(c1ccccc1)C1CCCCC1 (stereo not given) in this test.
inactive

Look up the recorded call for `C[C@H](O)C(=O)Nc1c(I)c(C(=O)NC(CO)CO)c(I)c(C(=O)NC(CO)CO)c1I` in this test.
inactive

* * *

assay: Cell Viability - LYMP2-010 (AID 981);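 note: cells exposed to compound for 24 hours at 37 °C; nearly all actives have a fitted effect of over 55% in size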; note: potency is the fitted concentration of half-maximal effect
test.settings: LYMP2-010 lymphoblastoid cell viability, qHTS; series mostly up to 92.2 µM
Records with an inconclusive call do not appear. The source made the active and inactive calls. Calls come from the whole dose curve; as a rule, active = well fitted cell-killing curve with a large enough effect; inconclusive = small, poorly fitted or top-dose-only effect; inactive = flat fitted curve, though single readings scatter.
value.type: Potency

{"compound": "C[C@]12CC[C@@H]3c4ccc(O)cc4CC[C@H]3[C@@H]1CC[C@@H]2O", "value.type": "Potency", "observed.value": "inactive"}
{"compound": "COC1=CC(=O)C[C@@H](C)[C@]12Oc1c(Cl)c(OC)cc(OC)c1C2=O", "value.type": "Potency", "observed.value": "inactive"}
{"compound": "Oc1c(Cl)cc(Cl)cc1Sc1cc(Cl)cc(Cl)c1O", "value.type": "Potency", "observed.value": "50.1 µM (active)"}
{"compound": "C=CCc1ccc(O)c(OC)c1", "value.type": "Potency", "observed.value": "inactive"}
{"compound": "O=C(O)CCCCC(=O)O", "value.type": "Potency", "observed.value": "inactive"}
{"compound": "CN(C)/N=N/c1nc[nH]c1C(N)=O", "value.type": "Potency", "observed.value": "inactive"}

Potency in this record for `O=c1ccc2ccccc2o1` : inactive

Potency in this record for `COc1cccc2c1C(=O)c1c(O)c3c(c(O)c1C2=O)C[C@@](O)(C(C)=O)C[C@@H]3O[C@H]1C[C@H](N)[C@H](O)[C@H](C)O1` : 0.199 µM (active)

* * *

assay: qHTS of pediatric cancer cell lines to identify multiple opportunities for drug repurposing: Primary screen for SK-N-SH cells (AID 1347098); note: nearly all actives have a fitted effect of over 65% in size
test.settings: SK-N-SH viability, CellTiter-Glo luminescence, 48 h; series mostly up to 57 µM
Records with an inconclusive call do not appear. Calls of active or inactive are those of the source. Calls follow the shape of the dose curve; as a rule, active = well fitted cell-killing curve with a large enough effect; inconclusive = small, poorly fitted or top-dose-only effect; inactive = no such curve, though single readings can be large or run the other way.
Form entry, call: pick from active, inactive

Look up the recorded call for `COc1cc(C=C2CCC/C(=C\c3ccc(O)c(OC)c3)C2=O)ccc1O` in this test.
active

Look up the recorded call for C[C@H]1[C@H](NC(=O)/C(=N/OC(C)(C)C(=O)O)c2csc(N)n2)C(=O)N1S(=O)(=O)O (stereo in doubt) in this test.
inactive

Look up the recorded call for `O=C(O)CNC(=O)c1ccccc1` in this test.
inactive

Look up the recorded call for `COC(=O)[C@@H]1CC2=CC(=O)CC[C@]2(C)[C@@]23O[C@@H]2C[C@@]2(C)[C@@H](CC[C@@]24CCC(=O)O4)[C@H]13` in this test.
inactive

Look up the recorded call for `CN(C)C(=S)SC(=S)N(C)C` in this test.
active

Look up the recorded call for `Cc1cccc(C)c1NC(=O)CN1CCN(CCCC(c2ccc(F)cc2)c2ccc(F)cc2)CC1` in this test.
inactive

Look up the recorded call for `Cc1cc2c(cc1CC(=O)c1sccc1S(=O)(=O)Nc1onc(C)c1Cl)OCO2` in this test.
inactive

Look up the recorded call for `CCOC(=O)COc1ccc2c(C)c(CCN(CC)CC)c(=O)oc2c1Cl` in this test.
inactive

* * *

Test system: OV90
assay: Primary qHTS to identify gynecologic anti-cancer compounds using libraries of approved drugs and bioactive compounds (AID 1345084); note: nearly all actives have a fitted effect of over 55% in size
test.settings: Gynecologic cancer cell panel viability, ATPlite luminescence, 48 h; series mostly up to 57.5 µM
Records with an inconclusive call do not appear. Activity calls are given as the source filed them. The call rests on the fitted dose curve; in most records, active means well fitted cell-killing curve with a large enough effect; inconclusive means small, poorly fitted or top-dose-only effect, or effect the other way; inactive means flat fitted curve, though single readings scatter.
Form entry, call: pick from YES = active, NO = inactive

{"compound": "CN(C/C=C/c1ccccc1)Cc1cccc2ccccc12", "class.name": "NO"}
{"compound": "Cc1ccccc1C(=O)Nc1ccc(C(=O)N2CCCC(N(C)C)c3ccccc32)cc1 (stereo not given)", "class.name": "NO"}
{"compound": "COCc1c(C(C)C)nc(C(C)C)c(/C=C/[C@@H](O)C[C@@H](O)CC(=O)O)c1-c1ccc(F)cc1", "class.name": "YES"}
{"compound": "NCCc1ccn[nH]1", "class.name": "NO"}
{"compound": "CC1=C(C(=O)OC(C)C)C(c2cccc([N+](=O)[O-])c2)C(C(=O)OC2CN(C(c3ccccc3)c3ccccc3)C2)=C(N)N1 (stereo not given)", "class.name": "NO"}

Okay, now this compound:
Look up the recorded call for CCCCC(CC)CN=C(N)NC(N)=NCCCCCCN=C(N)NC(N)=NCC(CC)CCCC (stereo not given) in this test.
YES

* * *

Test system: TAB113
assay: qHTS profiling for inhibitors of Plasmodium falciparum proliferation (AID 504749); note: nearly all actives have a fitted effect of over 60% in size
test.settings: P. falciparum in erythrocytes, SYBR Green DNA, 72 h; series mostly up to 28.7 µM
Records with an inconclusive call do not appear. Calls of active or inactive are those of the source. The call rests on the fitted dose curve; in most records, active means well fitted inhibition curve with a large enough effect; inconclusive means small, poorly fitted or top-dose-only effect; inactive means flat fitted curve, though single readings scatter.
Form entry, call: pick from yes (1) for active, no (0) for inactive

Look up the recorded call for `O=c1ccc2ccccc2o1` in this test.
no (0)

Look up the recorded call for `NCCC(O)(P(=O)(O)O)P(=O)(O)O` in this test.
no (0)

Look up the recorded call for `OC(CCN1CCCCC1)(c1ccccc1)c1ccccc1` in this test.
yes (1)

Look up the recorded call for `N[C@@H](Cc1cnc[nH]1)C(=O)O` in this test.
no (0)

The reported numbers originate from PubChem BioAssay (NCATS).
